# system tested: PPARγ (Homo sapiens, UniProt P37231)
# Construct: purchased Invitrogen Corporation, Carlsbad, Calif
# procedure details: commercial PPARγ binding assay (Invitrogen; PPAR-LBD/Fluormone PPAR Green complex)
# experimental setup: 50 μM compound; mean of three experiments
Lab note: compare Binding to PPARγ (Fluormone displacement signal) against 100. Equal or greater, write Condition met. Smaller, write Condition not met.

The following compounds have reported results that may help.
[
  {
    "compound": "CCc1ccc(CCOc2ccc(CC3(C)SC(=O)NC3=O)cc2)nc1 (single isomer, unassigned) [Compound 4]",
    "label value": "Condition met"
  },
  {
    "compound": "CCc1ccc([C@@H](O)COc2ccc(CC3(C)SC(=O)NC3=O)cc2)nc1 (stereo partly shown)",
    "label value": "Condition met"
  },
  {
    "compound": "CCc1ccc([C@@H](O)COc2ccc(CC3SC(=O)NC3=O)cc2)nc1 (stereo partly shown)",
    "label value": "Condition met"
  },
  {
    "compound": "CCc1ccc(C(=O)COc2ccc(CC3(C)SC(=O)NC3=O)cc2)nc1 (stereo not shown)",
    "label value": "Condition met"
  }
]

Field: next compound
Enquiry: Please indicate if the recorded Binding to PPARγ (Fluormone displacement signal) for CCc1ccc(C(=O)COc2ccc(CC3SC(=O)NC3=O)cc2)nc1 (stereo not shown) meets or exceeds 100.
Return: Condition met

###

# system tested: PPARγ (Homo sapiens)
# Construct: purchased Invitrogen Corporation, Carlsbad, Calif
# Sequence (P37231 238-503 limits assumed): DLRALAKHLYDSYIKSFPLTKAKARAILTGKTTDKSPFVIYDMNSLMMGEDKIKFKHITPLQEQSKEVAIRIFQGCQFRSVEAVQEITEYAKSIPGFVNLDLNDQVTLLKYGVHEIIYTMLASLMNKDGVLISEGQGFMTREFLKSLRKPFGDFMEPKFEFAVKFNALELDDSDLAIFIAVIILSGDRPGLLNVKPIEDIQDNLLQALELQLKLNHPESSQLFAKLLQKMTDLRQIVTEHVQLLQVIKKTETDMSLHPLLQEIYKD
# procedure details: commercial PPARγ binding assay (Invitrogen; PPAR-LBD/Fluormone PPAR Green complex)
# experimental setup: 1 μM compound; mean of three experiments
# Experimental: The ability of several exemplary compounds of the present invention, shown in Table A, to bind to PPARγ was measured using a commercial binding assay (Invitrogen Corporation, Carlsbad, Calif.) that measures the test compounds ability to bind with PPAR-LBD/Fluormone PPAR Green complex. These assays were performed on three occasions with each assay using four separate wells (quadruplicate) at each concentration of tested compound. […]
measurement name: Binding to PPARγ (Fluormone displacement signal)

[
  {
    "compound": "CCc1ccc([C@H](O)COc2ccc(CC3SC(=O)NC3=O)cc2)nc1 (some centres unmarked)",
    "assay value": 203
  },
  {
    "compound": "CCc1ccc(C(=CCO)COc2ccc(CC3SC(=O)NC3=O)cc2)nc1 (centres unmarked)",
    "assay value": 229
  },
  {
    "compound": "CCc1ccc(CCOc2ccc(CC3(C)SC(=O)NC3=O)cc2)nc1 (single isomer, unassigned) [Compound 4]",
    "assay value": 234
  }
]

# compound CCc1ccc([C@H](O)COc2ccc(CC3(C)SC(=O)NC3=O)cc2)nc1 (some centres unmarked) ; its Binding to PPARγ (Fluormone displacement signal) = 239

# compound CCc1ccc(C(=O)COc2ccc(CC3SC(=O)NC3=O)cc2)nc1 (centres unmarked) ; its Binding to PPARγ (Fluormone displacement signal) = 223

###

# system tested: PPARγ (Homo sapiens)
# Construct: purchased Invitrogen Corporation, Carlsbad, Calif
# procedure details: commercial PPARγ binding assay (Invitrogen; PPAR-LBD/Fluormone PPAR Green complex)
# experimental setup: 3 μM compound; mean of three experiments
Binary label based on Binding to PPARγ (Fluormone displacement signal) with cut-off 200: below gives t, not below gives f.

The following compounds have reported results that may help.
[
  {
    "compound": "CCc1ccc(C(=O)COc2ccc(CC3SC(=O)NC3=O)cc2)nc1 (centres unmarked) [Compound 1]",
    "label value": "f"
  },
  {
    "compound": "CCc1ccc(C(COc2ccc(CC3SC(=O)NC3=O)cc2)CC(=O)OC)nc1 (centres unmarked) [Compound 12]",
    "label value": "t"
  },
  {
    "compound": "CCc1ccc(C(=O)COc2ccc(CC3(C)SC(=O)NC3=O)cc2)nc1 (centres unmarked) [Compound 10]",
    "label value": "f"
  }
]

Enquiry: Confirm or reject: Binding to PPARγ (Fluormone displacement signal) of CCc1ccc([C@@H](O)COc2ccc(CC3(C)SC(=O)NC3=O)cc2)nc1 (some centres unmarked) [Compound 8] lies strictly below 200
Return: f

Enquiry: Confirm or reject: Binding to PPARγ (Fluormone displacement signal) of CCc1ccc(C(=CCO)COc2ccc(CC3SC(=O)NC3=O)cc2)nc1 (centres unmarked) [Compound 13] lies strictly below 200
Return: f

###

Each item that follows carries a reported Binding to PPARγ (Fluormone displacement signal).
# system tested: PPARγ (Homo sapiens, UniProt P37231)
# Construct: purchased Invitrogen Corporation, Carlsbad, Calif
# procedure details: commercial PPARγ binding assay (Invitrogen; PPAR-LBD/Fluormone PPAR Green complex)
# experimental setup: .1 μM compound; mean of three experiments
Answer with a number only.

Please review the following examples before continuing.
[
  {
    "molecule": "CCc1ccc(C(=CCO)COc2ccc(CC3SC(=O)NC3=O)cc2)nc1 (stereo not shown) [Compound 13]",
    "assay value": 244
  },
  {
    "molecule": "CCc1ccc([C@@H](O)COc2ccc(CC3SC(=O)NC3=O)cc2)nc1 (stereo partly shown) [Compound 2]",
    "assay value": 231
  },
  {
    "molecule": "CCc1ccc(CCOc2ccc(CC3(C)SC(=O)NC3=O)cc2)nc1 (single isomer, unassigned) [Compound 6]",
    "assay value": 246
  },
  {
    "molecule": "CCc1ccc(CCOc2ccc(CC3(C)SC(=O)NC3=O)cc2)nc1 (single isomer, unassigned) [Compound 7]",
    "assay value": 249
  },
  {
    "molecule": "CCc1ccc([C@H](O)COc2ccc(CC3(C)SC(=O)NC3=O)cc2)nc1 (stereo partly shown) [Compound 9]",
    "assay value": 237
  },
  {
    "molecule": "CCc1ccc(C(COc2ccc(CC3SC(=O)NC3=O)cc2)CC(=O)OC)nc1 (stereo not shown) [Compound 12]",
    "assay value": 243
  }
]

# molecule CCc1ccc([C@H](O)COc2ccc(CC3SC(=O)NC3=O)cc2)nc1 (stereo partly shown) [Compound 3] ; its Binding to PPARγ (Fluormone displacement signal) = 226

# molecule CCc1ccc([C@@H](O)COc2ccc(CC3(C)SC(=O)NC3=O)cc2)nc1 (stereo partly shown) [Compound 8] ; its Binding to PPARγ (Fluormone displacement signal) = 237

# molecule CCc1ccc(C(=O)COc2ccc(CC3(C)SC(=O)NC3=O)cc2)nc1 (stereo not shown) [Compound 10] ; its Binding to PPARγ (Fluormone displacement signal) = 245

###

# system tested: PPARγ (Homo sapiens)
# Construct: purchased Invitrogen Corporation, Carlsbad, Calif
# Sequence (P37231 238-503 limits assumed): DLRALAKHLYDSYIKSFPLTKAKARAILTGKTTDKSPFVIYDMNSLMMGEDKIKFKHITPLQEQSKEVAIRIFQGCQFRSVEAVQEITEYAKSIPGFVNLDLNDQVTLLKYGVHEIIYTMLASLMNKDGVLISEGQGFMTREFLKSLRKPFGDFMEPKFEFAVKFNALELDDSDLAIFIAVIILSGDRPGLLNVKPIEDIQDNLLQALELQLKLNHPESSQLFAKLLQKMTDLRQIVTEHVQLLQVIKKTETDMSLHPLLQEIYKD
# procedure details: commercial PPARγ binding assay (Invitrogen; PPAR-LBD/Fluormone PPAR Green complex)
# experimental setup: 100 μM compound; mean of three experiments
Binary label based on Binding to PPARγ (Fluormone displacement signal) with cut-off 100: below gives true, not below gives false.

The following compounds have reported results that may help.
[
  {
    "compound": "CCc1ccc(CCOc2ccc(CC3(C)SC(=O)NC3=O)cc2)nc1 (single isomer, unassigned) [Compound 4]",
    "system tested": "PPARγ (Homo sapiens)",
    "label value": "true"
  },
  {
    "compound": "CCc1ccc(C(=O)COc2ccc(CC3SC(=O)NC3=O)cc2)nc1 (stereo not shown)",
    "system tested": "PPARγ (Homo sapiens)",
    "label value": "false"
  },
  {
    "compound": "CCc1ccc(CCOc2ccc(CC3(C)SC(=O)NC3=O)cc2)nc1 (single isomer, unassigned) [Compound 7]",
    "system tested": "PPARγ (Homo sapiens)",
    "label value": "false"
  },
  {
    "compound": "CCc1ccc([C@@H](O)COc2ccc(CC3(C)SC(=O)NC3=O)cc2)nc1 (stereo partly shown)",
    "system tested": "PPARγ (Homo sapiens)",
    "label value": "false"
  },
  {
    "compound": "CCc1ccc(C(COc2ccc(CC3SC(=O)NC3=O)cc2)CC(=O)OC)nc1 (stereo not shown)",
    "system tested": "PPARγ (Homo sapiens)",
    "label value": "true"
  }
]

Enquiry: Confirm or reject: Binding to PPARγ (Fluormone displacement signal) of CCc1ccc(C(=O)COc2ccc(CC3(C)SC(=O)NC3=O)cc2)nc1 (stereo not shown) lies strictly below 100
Return: true

Enquiry: Confirm or reject: Binding to PPARγ (Fluormone displacement signal) of CCc1ccc([C@H](O)COc2ccc(CC3(C)SC(=O)NC3=O)cc2)nc1 (stereo partly shown) lies strictly below 100
Return: false

Enquiry: Confirm or reject: Binding to PPARγ (Fluormone displacement signal) of CCc1ccc(C(O)COc2ccc(CC3(C)SC(=O)NC3=O)cc2)nc1 (stereo not shown) lies strictly below 100
Return: false

Enquiry: Confirm or reject: Binding to PPARγ (Fluormone displacement signal) of CCc1ccc([C@H](O)COc2ccc(CC3SC(=O)NC3=O)cc2)nc1 (stereo partly shown) lies strictly below 100
Return: true

Enquiry: Confirm or reject: Binding to PPARγ (Fluormone displacement signal) of CCc1ccc(C(=CCO)COc2ccc(CC3SC(=O)NC3=O)cc2)nc1 (stereo not shown) lies strictly below 100
Return: false

Enquiry: Confirm or reject: Binding to PPARγ (Fluormone displacement signal) of CCc1ccc([C@@H](O)COc2ccc(CC3SC(=O)NC3=O)cc2)nc1 (stereo partly shown) lies strictly below 100
Return: false

Enquiry: Confirm or reject: Binding to PPARγ (Fluormone displacement signal) of CCc1ccc(C(=CC(=O)OC)COc2ccc(CC3SC(=O)NC3=O)cc2)nc1 (stereo not shown) lies strictly below 100
Return: true
